- Target system: CD137 (Homo sapiens, UniProt Q07011)
- Sequence (Q07011 24-255): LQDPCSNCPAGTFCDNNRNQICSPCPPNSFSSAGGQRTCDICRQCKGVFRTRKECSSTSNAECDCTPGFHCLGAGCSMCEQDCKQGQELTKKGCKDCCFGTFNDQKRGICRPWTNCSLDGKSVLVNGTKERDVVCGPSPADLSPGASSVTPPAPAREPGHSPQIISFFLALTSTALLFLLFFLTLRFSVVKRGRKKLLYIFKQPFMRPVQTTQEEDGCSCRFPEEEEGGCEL
- Test protocol: CD137 reporter assay (Promega, Jurkat cells) in co-culture with EphA2-expressing tumor cells (A549, PC3, HT29)
- Type: cell-based
- Set-up: host or cells: Jurkat reporter cells
- Test conditions: EC50, CD137 reporter coculture assay with PC3 tumor cells
- Protocol: Culture medium, referred to as R1 media, is prepared by adding 1% FBS to RPMI-1640 (component of Promega kit CS196005). Serial dilutions of test articles in R1 are prepared in a sterile 96 well-plate. Add 25 μL per well of test articles or R1 (as a background control) to designated wells in a white cell culture plate. […] At the end of 6 h, add 75 μL/well Bio-Glo™ reagent (Promega) and incubate for 10 min before reading luminescence in a plate reader (Clariostar, BMG). […]
Starred links: 1 amine or outer side, 2 acyl side, 3 side chain; linkers in the order of their positions; H or OH if unused. Positions of bridges follow the written chain, without caps; N, C: chain ends. Non-standard residues stand in square brackets, D forms with d. Chains are numbered I, II in the order given. X1 = O=C(CCOCCOCCOCCN(CCOCCOCCOCCn1cc(CCC(=O)[*:2])nn1)CCOCCOCCOCCn1cc(CCC(=O)[*:3])nn1)[*:1]; X2 = O=C(CCSCCC(=O)[*:1])N1CN(C(=O)CC[*:2])CN(C(=O)CC[*:3])C1; TATA = O=C(CC[*:1])N1CN(C(=O)CC[*:2])CN(C(=O)CC[*:3])C1; Dip = N[C@H](C(=O)O)C(c1ccccc1)c1ccccc1; Hyp = O=C(O)[C@@H]1C[C@@H](O)CN1; hArg = N=C(N)NCCCC[C@H](N)C(=O)O; tBuAla = CC(C)(C)C[C@H](N)C(=O)O; Aad = N[C@@H](CCCC(=O)O)C(=O)O; Cba = N[C@@H](CC1CCC1)C(=O)O; Nle = CCCC[C@H](N)C(=O)O; Mpa = O=C(O)CCS
Record form. Attribute: pEC50. Fill in for each entry.
Note: pEC50 values are expressed as the negative base-10 logarithm of concentration in M.

Given the entry I: C[Hyp]LVNPLCL[Dip]P[dD]WTC-NH2 / II: [Mpa][tBuAla]PE[dK]PYCFADPY[Nle]C-NH2 / III: [tBuAla]PE[dK]PYCFADPY[Nle]C-NH2 (linker I:1-I:8-I:15, II:1-II:8-II:15 via TATA; linker I:N-II:5-III:4 via X1; linker III:N-III:7-III:14 via X2) [BCY13343] , report its measured pEC50.
9.96

What pEC50 value was documented for this substance, I: A[hArg]DC[Hyp]LVNPLC[Aad]HP[dD]W[hArg]C-NH2 / II: Ac-C[tBuAla]PE[dK]PYCFADPY[Nle]CA-NH2 / III: Ac-C[tBuAla]PE[dK]PYCFADPY[Nle]CA-NH2 (linker I:4-I:11-I:18, II:1-II:8-II:15, III:1-III:8-III:15 via TATA; linker I:N-II:5-III:5 via X1) [BCY13285] ?
9.59

What does the data say about its pEC50? Entry: I: [dA][hArg]DC[Hyp][Cba]VNPLCLEP[dA]WTC[dA]-NH2 / II: Ac-C[tBuAla]PE[dK]PYCFADPY[Nle]CA-NH2 / III: Ac-C[tBuAla]PE[dK]PYCFADPY[Nle]CA-NH2 (linker I:4-I:11-I:18, II:1-II:8-II:15, III:1-III:8-III:15 via TATA; linker I:N-II:5-III:5 via X1) [BCY13277]
10.10
